# targetDesc: His6‐FraB (Salmonella FraB deglycase) (Salmonella enterica subsp. enterica serovar Typhimurium, UniProt Q8ZLD0)
# Sequence (Q8ZLD0 entry or part of it): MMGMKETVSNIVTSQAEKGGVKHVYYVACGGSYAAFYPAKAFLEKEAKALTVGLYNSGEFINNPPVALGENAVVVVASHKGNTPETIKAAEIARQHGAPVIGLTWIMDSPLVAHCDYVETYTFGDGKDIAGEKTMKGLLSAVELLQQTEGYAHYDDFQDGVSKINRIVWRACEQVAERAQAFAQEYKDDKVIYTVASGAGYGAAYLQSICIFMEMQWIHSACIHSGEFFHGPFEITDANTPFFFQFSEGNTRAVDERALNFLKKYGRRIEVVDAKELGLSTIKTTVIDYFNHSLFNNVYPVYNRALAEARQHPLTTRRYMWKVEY
# protocolText: FraB-G6PD coupled assay, Michaelis–Menten analysis for K I and mode of inhibition
# Format: biochemical
# statedConditions: Trial 2; 6-P-F-Asp 750 µM, S/Km 17.85714; unit from Fig. S11 axis; read-out: IC50 (IC50 versus [S]/Km plots)
valueType: IC50

>  <compound>
O=c1[nH][nH]c(=S)n1Cc1ccccc1 [1533:K12]

>  <valueType>
IC50

>  <dataValue>
20.5 µM

$$$$
>  <compound>
O=c1sn(-c2ccccc2C(F)(F)F)c(=O)n1CC1CC1 [1524:G12]

>  <valueType>
IC50

>  <dataValue>
1.42 µM

$$$$
>  <compound>
CC(C)Cc1cc(-c2nn3c(-c4ccccc4Cl)nnc3s2)n[nH]1 [3470:A09]

>  <valueType>
IC50

>  <dataValue>
10.9 µM

$$$$
>  <compound>
Cc1cccc(Cl)c1-n1sc(=O)n(CC2CC2)c1=O [1524:E12]

>  <valueType>
IC50

>  <dataValue>
4.9173 µM

$$$$
>  <compound>
c1ccc(-c2nnc3sc(C4COc5ccccc5O4)nn23)nc1 (centres unmarked) [3469:F02]

>  <valueType>
IC50

>  <dataValue>
45.4 µM

$$$$

###

# targetDesc: UniProt Q8ZLD0
# protocolText: FraB-G6PD coupled assay, Michaelis–Menten analysis for K I and mode of inhibition
# Format: biochemical
# statedConditions: IC50 (IC50 versus [S]/Km plots), Trial 1; 6-P-F-Asp 125 µM, S/Km 2.97619; unit from Fig. S11 axis

>  <testSmiles>
Fc1ccc(-c2nn3c(-c4ccccn4)nnc3s2)cc1

>  <units>
µM

>  <IC50>
32.7

$$$$

###

# targetDesc: His6‐FraB (Salmonella FraB deglycase) (Salmonella enterica subsp. enterica serovar Typhimurium, UniProt Q8ZLD0)
# protocolText: FraB-G6PD coupled assay, Michaelis–Menten analysis for K I and mode of inhibition
# Type: biochemical
# statedConditions: IC50 (IC50 versus [S]/Km plots), Trial 2; 6-P-F-Asp 3000 µM, S/Km 71.42857; unit from Fig. S11 axis
pIC50: −log10 of the molar value.

>  <testSmiles>
Fc1ccc(-c2nn3c(-c4ccccn4)nnc3s2)cc1

>  <pIC50>
4.37

$$$$

###

# targetDesc: His6‐FraB (Salmonella FraB deglycase) (Salmonella enterica subsp. enterica serovar Typhimurium, UniProt Q8ZLD0)
# protocolText: FraB-G6PD coupled assay, Michaelis–Menten analysis for K I and mode of inhibition
# Type: biochemical
# statedConditions: IC50 (IC50 versus [S]/Km plots), Trial 1; 6-P-F-Asp 7.38 µM, S/Km 0.175714; unit from Fig. S11 axis
pIC50: −log10 of the molar value.

>  <compound>
Fc1ccc(-c2nn3c(-c4ccccn4)nnc3s2)cc1 [3469:N17]

>  <pIC50>
4.32

$$$$
